These data points were gathered from ChEMBL document CHEMBL3885861.

# Species on record: Rattus norvegicus
# measurement.protocol: Open TG-GATES - Regimen: Single
# Assay type: toxicity, organism-based, Sprague-Dawley
# Parameters: regimen Single, gender Male, age 6 weeks
# test.settings: in vivo, po, 0 mg/kg, 3 h, tissue Plasma, route gavage, dose level Control

# molecule, PL [mg/dL]
rows = [
    ("C#C[C@]1(O)CC[C@H]2[C@@H]3CCC4=Cc5oncc5C[C@]4(C)[C@H]3CC[C@@]21C [DANAZOL]", 131.8),
    ("Cc1cccc(Nc2ccccc2C(=O)O)c1C [MEFENAMIC ACID]", 145.8),
    ("CC(CN1c2ccccc2Sc2ccccc21)N(C)C (stereo not given) [PROMETHAZINE]", 134.2),
    ("C1CCC(C(CC2CCCCN2)C2CCCCC2)CC1 (stereo not given) [PERHEXILINE]", 144.4),
    ("CC(=O)Nc1nnc(S(N)(=O)=O)s1 [ACETAZOLAMIDE]", 137.6),
    ("CN1C(C(=O)Nc2ccccn2)=C(O)c2sc(Cl)cc2S1(=O)=O [LORNOXICAM]", 133.4),
    ("CCOC(=O)[C@H](CCc1ccccc1)N[C@@H](C)C(=O)N1CCC[C@H]1C(=O)O", 146),
    ("COc1cc([C@@H]2c3cc4c(cc3[C@@H](O[C@@H]3O[C@@H]5CO[C@@H](C)O[C@H]5[C@H](O)[C@H]3O)[C@H]3COC(=O)[C@H]23)OCO4)cc(OC)c1O [ETOPOSIDE]", 126.6),
    ("CN(C)[C@@H]1C(O)=C(C(N)=O)C(=O)[C@@]2(O)C(O)=C3C(=O)c4c(O)cccc4[C@@](C)(O)[C@H]3C[C@@H]12 [TETRACYCLINE]", 143.2),
    ("Clc1c(Cl)c(Cl)c(Cl)c(Cl)c1Cl [PERCHLOROBENZENE]", 156.8),
]

----------
# Organism: Rattus norvegicus
# measurement.protocol: Open TG-GATES - Regimen: Single
# Assay type: toxicity, organism-based, Sprague-Dawley
# Design: regimen Single, gender Male, age 6 weeks
# test.settings: in vivo, po, 0 mg/kg, 24 h, tissue Kidney, route gavage, dose level Control
endpoint: KIDNEY_TOTAL (g)

# molecule, unit.info, observed.measurement
measured = [
    ("CCOC(=O)[C@H](CCc1ccccc1)N[C@@H](C)C(=O)N1CCC[C@H]1C(=O)O", "g", 2.1),
    ("C#C[C@]1(O)CC[C@H]2[C@@H]3CCC4=Cc5oncc5C[C@]4(C)[C@H]3CC[C@@]21C [DANAZOL]", "g", 2.1),
    ("CC(CN1c2ccccc2Sc2ccccc21)N(C)C (stereo not drawn) [PROMETHAZINE]", "g", 2),
]

----------
# Species on record: Rattus norvegicus
# measurement.protocol: Open TG-GATES - Regimen: Daily Repeat
# Type: toxicity, organism-based, Sprague-Dawley
# Parameters: regimen Daily Repeat, gender Male, age 6 weeks
# test.settings: in vivo, po, 0 mg/kg, […], tissue Blood, route gavage, dose level Control, time 28 day
Listed here: items and their measured PT.
endpoint: PT (s)

# compound, endpoint, observed.measurement
measured = [
    ("CN(C)[C@@H]1C(O)=C(C(N)=O)C(=O)[C@@]2(O)C(O)=C3C(=O)c4c(O)cccc4[C@@](C)(O)[C@H]3C[C@@H]12", "PT", 11.8),
    ("Clc1c(Cl)c(Cl)c(Cl)c(Cl)c1Cl", "PT", 11.7),
    ("Cc1cccc(Nc2ccccc2C(=O)O)c1C", "PT", 11.8),
    ("C#C[C@]1(O)CC[C@H]2[C@@H]3CCC4=Cc5oncc5C[C@]4(C)[C@H]3CC[C@@]21C", "PT", 15.9),
    ("CCOC(=O)[C@H](CCc1ccccc1)N[C@@H](C)C(=O)N1CCC[C@H]1C(=O)O", "PT", 11.6),
    ("C1CCC(C(CC2CCCCN2)C2CCCCC2)CC1 (stereo not drawn)", "PT", 16.1),
    ("CC(CN1c2ccccc2Sc2ccccc21)N(C)C (stereo not drawn)", "PT", 16.4),
    ("CN1C(C(=O)Nc2ccccn2)=C(O)c2sc(Cl)cc2S1(=O)=O", "PT", 11.7),
]
